System: HT-29 (colorectal adenocarcinoma)
Experiment: WST-1 cytotoxicity assay, HT-29
Format: cell-based
Details: Homo sapiens, c = 10 μM, 48 h, percent of proliferation of untreated control cells, read-out: Cell proliferation, HT-29
measurement name: activity at 10 µM (%)

[[record]]
molecule = "COC1C=CC23c4cc5c(cc4CN(CC2OC(=O)c2ccccc2C)C3C1)OCO5 (stereo not drawn)"
measurement_target = "HT-29 (colorectal adenocarcinoma)"
measurement_name = "activity at 10 µM"
val = 98

[[record]]
molecule = "CCCCC(=O)OC1CN2Cc3cc4c(cc3C13C=CC(OC)CC23)OCO4 (stereo not drawn)"
measurement_target = "HT-29 (colorectal adenocarcinoma)"
measurement_name = "activity at 10 µM"
val = 94

[[record]]
molecule = "COC1C=CC23c4cc5c(cc4CN(CC2OC(=O)C(C)C)C3C1)OCO5 (stereo not drawn)"
measurement_target = "HT-29 (colorectal adenocarcinoma)"
measurement_name = "activity at 10 µM"
val = 82

[[record]]
molecule = "COC1C=CC23c4cc5c(cc4CN(CC2OC(=O)c2ccc([N+](=O)[O-])cc2)C3C1)OCO5 (stereo not drawn)"
measurement_target = "HT-29 (colorectal adenocarcinoma)"
measurement_name = "activity at 10 µM"
val = 73

[[record]]
molecule = "COc1cccc(C(=O)OC2CN3Cc4cc5c(cc4C24C=CC(OC)CC34)OCO5)c1 (stereo not drawn)"
measurement_target = "HT-29 (colorectal adenocarcinoma)"
measurement_name = "activity at 10 µM"
val = 93

[[record]]
molecule = "CCC(=O)OC1CN2Cc3cc4c(cc3C13C=CC(OC)CC23)OCO4 (stereo not drawn)"
measurement_target = "HT-29 (colorectal adenocarcinoma)"
measurement_name = "activity at 10 µM"
val = 79

[[record]]
molecule = "CCCCCC(=O)OC1CN2Cc3cc4c(cc3C13C=CC(OC)CC23)OCO4 (stereo not drawn)"
measurement_target = "HT-29 (colorectal adenocarcinoma)"
measurement_name = "activity at 10 µM"
val = 100

[[record]]
molecule = "COC1C=CC23c4cc5c(cc4CN(CC2OC(=O)c2cccc(Br)c2)C3C1)OCO5 (stereo not drawn)"
measurement_target = "HT-29 (colorectal adenocarcinoma)"
measurement_name = "activity at 10 µM"
val = 120

[[record]]
molecule = "COC1C=CC23c4cc5c(cc4CN(CC2OC(=O)c2ccccc2)C3C1)OCO5 (stereo not drawn)"
measurement_target = "HT-29 (colorectal adenocarcinoma)"
measurement_name = "activity at 10 µM"
val = 110

[[record]]
molecule = "CCCC(=O)OC1CN2Cc3cc4c(cc3C13C=CC(OC)CC23)OCO4 (stereo not drawn)"
measurement_target = "HT-29 (colorectal adenocarcinoma)"
measurement_name = "activity at 10 µM"
val = 101

[[record]]
molecule = "COC1C=CC23c4cc5c(cc4CN(CC2OC(C)=O)C3C1)OCO5 (stereo not drawn)"
measurement_target = "HT-29 (colorectal adenocarcinoma)"
measurement_name = "activity at 10 µM"
val = 97

[[record]]
molecule = "COc1cccc2c1C(=O)c1c(O)c3c(c(O)c1C2=O)C[C@@](O)(C(=O)CO)C[C@@H]3O[C@H]1C[C@H](N)[C@H](O)[C@H](C)O1 [DOX, Doxorubicin, reference compound]"
measurement_target = "HT-29 (colorectal adenocarcinoma)"
measurement_name = "activity at 10 µM"
val = 77


This collection of values is drawn from paper PMC6480460.
